Listing: change of melting temperature, mutant - wild type (higher = more stable) of selected variants
B1: High mobility group protein B1, P63159 (parent)
chain: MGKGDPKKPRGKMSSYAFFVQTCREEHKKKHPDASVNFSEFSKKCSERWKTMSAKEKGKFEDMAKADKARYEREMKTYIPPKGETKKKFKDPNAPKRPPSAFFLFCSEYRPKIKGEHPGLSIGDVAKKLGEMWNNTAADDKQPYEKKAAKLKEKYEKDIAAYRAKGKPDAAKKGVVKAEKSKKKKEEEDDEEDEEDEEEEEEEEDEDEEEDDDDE

Variants of: B1
Details: Rattus norvegicus; pH 7; Thermal; CD; HEPES 10 mM; structure 1HME; whole UniProt chain shown
Answer with a number only, understood to be in °C.

Observe how each entry below is paired with its result.
>>> reported_result("D139H")
0.5
>>> reported_result("S121H")
-10.2
>>> reported_result("D140H")
-2.4

// next entry
variant I122H , change of melting temperature, mutant - wild type (higher = more stable) observed: -4.4
